Biological target: human adenosine A2A receptor (A2aR) (human, UniProt P29274 1-412)
Sequence (P29274 whole entry): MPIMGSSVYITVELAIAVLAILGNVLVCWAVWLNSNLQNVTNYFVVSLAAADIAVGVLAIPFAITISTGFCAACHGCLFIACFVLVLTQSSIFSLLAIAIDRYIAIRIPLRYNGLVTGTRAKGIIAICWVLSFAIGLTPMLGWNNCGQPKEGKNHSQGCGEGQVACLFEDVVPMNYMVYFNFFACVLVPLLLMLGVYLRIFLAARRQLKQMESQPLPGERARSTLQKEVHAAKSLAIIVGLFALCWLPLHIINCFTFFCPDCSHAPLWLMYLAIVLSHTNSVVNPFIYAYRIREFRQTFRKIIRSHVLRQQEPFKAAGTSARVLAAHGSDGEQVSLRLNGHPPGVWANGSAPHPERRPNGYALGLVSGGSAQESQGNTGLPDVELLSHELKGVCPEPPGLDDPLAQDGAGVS
Assay: cell-based or functional assay
measured_attribute: IC50 of blocking activity, cAMP-Glo, 300 nM NECA, HEK293-hA2aR cells, supernatant (nM)
Numbers only, in nM.

| binder | unit_text | assay_result |
| --- | --- | --- |
| Hu3F8-H5/Hu3F8-L3 (antibody, human IgG1, V domains shown, Human IgG1 FES (L234F, L235E, P331S) and human Ig kappa constant domains) VH: EVQLVQSGAEVKKPGASVKVSCKASGFTFTRYWMNWVRQAPGQGLEWIGRIDPSDSETHYNAKFWGRATLTVDKSTSTVYMELSSLRSEDTAVYYCLRSLYGKGDYWGQGTTVTVSS VL: DVVMTQSPLSLPVTLGQPASISCRSSQSIVHSNGNTYLEWYQQRPGQSPRLLIYKVSNRFSGVPDRFSGSGSGTDFTLKISRVEAEDVGVYYCYQGSHVPLTFGGGTKVEIK | nM | 1.5 |

Please examine the following record next.
# input // query IC50 of blocking activity, cAMP-Glo, 300 nM NECA, HEK293-hA2aR cells, supernatant value for entry Hu3F8-H2/Hu3F8-L3 (antibody, human IgG1, V domains shown, Human IgG1 FES (L234F, L235E, P331S) and human Ig kappa constant domains; also called Hu3F8 VH2/VL3) VH: EVQLVQSGAEVKKPGASVKVSCKASGFTFTRYWMNWVRQAPGQGLEWMGRIDPSDSETHYNHKFWGRVTMTVDTSTSTVYMELSSLRSEDTAVYYCLRSLYGKGDYWGQGTTVTVSS VL: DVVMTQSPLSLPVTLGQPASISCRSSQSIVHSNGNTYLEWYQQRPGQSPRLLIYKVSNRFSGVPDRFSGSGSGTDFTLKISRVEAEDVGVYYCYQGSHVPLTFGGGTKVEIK
# output 1.1
